# System: Proteus mirabilis
# experimental.details: Potency index, ratio of acetohydroxamic acid IC50 to test compound IC50 for inhibition of Proteus mirabilis B4 urease activity using urea as substrate incubated for 30 mins by absorbance based assay
measurement.type: Ratio IC50
Answers are plain numbers.

Previously resolved entries follow.
>>> df
             molecule_smiles    target_of_assay  result_number
0            NC(=S)Nc1ccccc1  Proteus mirabilis          0.002
1           NC(=S)NCc1ccccc1  Proteus mirabilis           1.61
2  S=C(NCc1cccnc1)NCc1cccnc1  Proteus mirabilis           26.1

Attention now shifts to the item below.
Challenge: Param readout = Ratio IC50; param system = Proteus mirabilis; param query = `O=c1c(O)c(-c2ccc(O)c(O)c2)oc2cc(O)cc(O)c12` ; response: value
Response given: 0.001
